B1: scFv; the commonest letter at each place (parent)
chain 1: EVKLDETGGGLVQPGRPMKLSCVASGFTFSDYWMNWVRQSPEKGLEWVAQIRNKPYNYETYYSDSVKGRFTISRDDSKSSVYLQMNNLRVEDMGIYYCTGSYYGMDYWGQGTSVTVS
chain 2: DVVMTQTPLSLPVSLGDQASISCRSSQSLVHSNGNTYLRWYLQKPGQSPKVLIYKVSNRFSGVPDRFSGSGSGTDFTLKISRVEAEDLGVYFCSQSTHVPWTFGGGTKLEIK

Variants of: B1
assayProcedure: yeast surface expression (ratio to wild type); higher = more expressed
conditionNotes: format: scFv 4-4-20, heavy + light
Short version: yeast surface expression at least 0.8 is 1 (yes), less is 0 (no).

These solved cases illustrate the format of a correct answer.
# variantIdentifier, classification
records = [
    ("chain 1 Y32E W36Q", "0 (no)"),
    ("chain 1 T28W", "1 (yes)"),
    ("chain 1 D31F N35S", "0 (no)"),
    ("chain 1 G100M", "0 (no)"),
    ("chain 1 G100C Y107E", "0 (no)"),
]

Evaluate chain 1 V37S : yeast surface expression at minimum 0.8?
0 (no)

Evaluate chain 1 T28E V37C : yeast surface expression at minimum 0.8?
1 (yes)

Evaluate chain 1 Y102V M105H G109V : yeast surface expression at minimum 0.8?
0 (no)

Evaluate chain 1 F29Q V37A : yeast surface expression at minimum 0.8?
1 (yes)

Evaluate chain 1 F29G : yeast surface expression at minimum 0.8?
1 (yes)

Evaluate chain 1 Y107Q : yeast surface expression at minimum 0.8?
0 (no)

Evaluate chain 1 G100R M105Y W108P : yeast surface expression at minimum 0.8?
0 (no)

Evaluate chain 1 F29R V37P : yeast surface expression at minimum 0.8?
0 (no)

Evaluate chain 1 Y107A G109Q : yeast surface expression at minimum 0.8?
0 (no)

Evaluate chain 1 Y103S W108R : yeast surface expression at minimum 0.8?
0 (no)

Evaluate chain 1 G100Y D106S : yeast surface expression at minimum 0.8?
0 (no)

Evaluate chain 1 S101I M105N : yeast surface expression at minimum 0.8?
0 (no)

Evaluate chain 1 F29Q W36H : yeast surface expression at minimum 0.8?
0 (no)

Evaluate chain 1 Y107H W108T : yeast surface expression at minimum 0.8?
1 (yes)

Evaluate chain 1 D106F Y107G : yeast surface expression at minimum 0.8?
0 (no)

Evaluate chain 1 F29G S30K : yeast surface expression at minimum 0.8?
1 (yes)
